Assay: Caco-2 cell permeability assay
Type: in vitro ADME
Details: human, pH 7.4; Caco-2, Papp (B-A)/Papp (A-B); approximate values
measurementKind: efflux ratio at 2 h, 10 µM

Requested field: efflux ratio at 2 h, 10 µM. Item: CCn1cc(C(=O)O)c(=O)c2c(N)c(F)c(N[C@@H]3CC[C@@H]3c3ccccc3)cc21 (relative stereo) 0.58

Which efflux ratio at 2 h, 10 µM value belongs to CCn1cc(C(=O)O)c(=O)c2c(N)c(F)c(NC3CC3)cc21 ? 0.48

Any idea what its efflux ratio at 2 h, 10 µM is? The compound is CCn1cc(C(=O)O)c(=O)c2c(N)c(F)c(N[C@H]3C[C@H](c4ccccc4)C3)cc21 0.5

Find the recorded efflux ratio at 2 h, 10 µM belonging to CCn1cc(C(=O)O)c(=O)c2c(N)c(F)c(NCCc3ccccc3)cc21 and report it. 0.66

====

Assay: Caco-2 cell permeability assay
Assay type: in vitro ADME
Conditions: human, pH 7.4; Caco-2, Papp (B-A)/Papp (A-B); approximate values
measurementKind: efflux ratio at 2 h, 10 µM
The response must contain the number and no unit.

State the recorded efflux ratio at 2 h, 10 µM for this entry: CCCn1cc(C(=O)O)c(=O)c2c(N)c(F)c(NCCN[C@@H]3C[C@H]3c3ccccc3)cc21 (relative stereo) 1.4

What value of efflux ratio at 2 h, 10 µM has been reported for the following compound? CCC(CC)n1cc(C(=O)O)c(=O)c2c(C)c(F)c(NC3CCCCC3)cc21 0.27

I have this compound here, Nc1c(F)c(N[C@@H]2C[C@H]2c2ccccc2)c(F)c2c1c(=O)c(C(=O)O)cn2C1CC1 (relative stereo) , and I need its recorded efflux ratio at 2 h, 10 µM. 0.47

Form field: reported efflux ratio at 2 h, 10 µM of CCn1cc(C(=O)O)c(=O)c2c(N)c(F)c(N[C@H]3CC[C@@H](N[C@@H]4C[C@H]4c4ccccc4)CC3)cc21 (relative stereo) 0.48

Which efflux ratio at 2 h, 10 µM value belongs to CCn1cc(C(=O)O)c(=O)c2c(N)c(F)c(Nc3ccc([C@@H]4C[C@H]4N)cc3)cc21 (relative stereo) ? 38

# lookup: efflux ratio at 2 h, 10 µM of CCn1cc(C(=O)O)c(=O)c2c(N)c(F)c(N[C@@H]3CC[C@H]3c3ccccc3)cc21 (relative stereo) 0.53

====

Please provide measured IC50 for the entries that follow.
Molecular target: GSK3β (Homo sapiens, UniProt P49841)
Sequence (P49841 whole entry): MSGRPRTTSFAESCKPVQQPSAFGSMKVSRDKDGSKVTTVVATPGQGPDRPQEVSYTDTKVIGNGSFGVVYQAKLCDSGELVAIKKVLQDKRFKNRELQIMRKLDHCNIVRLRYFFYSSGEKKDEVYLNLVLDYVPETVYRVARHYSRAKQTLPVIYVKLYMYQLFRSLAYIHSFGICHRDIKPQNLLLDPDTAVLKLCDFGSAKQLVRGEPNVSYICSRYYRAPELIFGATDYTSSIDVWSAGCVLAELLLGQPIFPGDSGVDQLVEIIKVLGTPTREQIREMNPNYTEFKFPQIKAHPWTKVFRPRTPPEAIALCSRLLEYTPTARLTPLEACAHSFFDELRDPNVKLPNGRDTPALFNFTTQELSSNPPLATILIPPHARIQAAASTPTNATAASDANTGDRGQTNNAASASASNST
Test: GSK3β in vitro enzymatic assay (Kinase-Glo Max luminescence)
Details: recombinant human GSK3, 10 μM ATP; approximate values; read-out: Potency GSK3beta
Express it in nM; write the number only.

For CCn1cc(C(=O)O)c(=O)c2c(N)c(F)c(N[C@H]3CC[C@@H](N[C@@H]4C[C@H]4c4ccccc4)CC3)cc21 (relative stereo) [Compound I-28] , what is its reported IC50? 691

Endpoint output: IC50 of CCn1cc(C(=O)O)c(=O)c2c(N)c(F)c(N[C@H]3C[C@H](c4ccccc4)C3)cc21 [Compound I-60] . Value? 31

# IC50 lookup, item CCn1cc(C(N)=O)c(=O)c2c(N)c(F)c(NCCc3ccccc3)cc21 [Compound I-66] 2.5

Which IC50 value is on record for CCC(CC)n1cc(C(=O)O)c(=O)c2c(C)c(F)c(NC3CCCCC3)cc21 [Compound I-3] ? 366

# IC50 lookup, item CCn1cc(C(=O)O)c(=O)c2c(N)c(F)c(NC3CCOCC3)cc21 [Compound I-8] 452

Could you tell me which IC50 is on file for CCn1cc(C(=O)O)c(=O)c2c(N)c(F)c(N[C@@H]3C[C@H]3c3ccccc3)cc21 (single isomer, unassigned) [Compound I-20] ? 338

Tell me the measured IC50 of CCn1cc(C(=O)O)c(=O)c2c(N)c(F)c(NCc3ccccc3)cc21 [Compound I-17] , please. 2030

Any idea what its IC50 is? The compound is CCn1cc(C(=O)O)c(=O)c2c(N)c(F)c(NC3CCCCC3)cc21 [Compound I-7] 18

// returns reported IC50 for input CCn1cc(C(=O)O)c(=O)c2c(N)c(F)c(N[C@@H]3CC[C@H]3c3ccccc3)cc21 (relative stereo) [Compound I-13] 555

What does the data say about its IC50? Entry: CCn1cc(C(N)=O)c(=O)c2c(N)c(F)c(NCCN[C@H]3C[C@@H]3c3ccccc3)cc21 (relative stereo) [Compound I-83] 3.4

I have this compound here, CCn1cc(C(=O)O)c(=O)c2c(N)c(F)c(NC3CCC3)cc21 [Compound I-12] , and I need its recorded IC50. 55

What value of measured IC50 is listed for CCn1cc(C(=O)O)c(=O)c2c(N)c(F)c(NCCN[C@@H]3C[C@H]3c3ccccc3)cc21 (relative stereo) [Compound I-29] ? 303

Can you look up the measured IC50 of CCn1cc(C(=O)O)c(=O)c2c(N)c(F)c(N[C@H]3C[C@@H]3c3ccccc3)cc21 [Compound I-22] for me? 115

// IC50 lookup, key: CCn1cc(C#N)c(=O)c2c(N)c(F)c(NCCN[C@@H]3C[C@H]3c3ccccc3)cc21 (relative stereo) [Compound I-84] 2.2

Which IC50 reading was recorded for the compound CCn1cc(C(=O)O)c(=O)c2c(N)c(F)c(NCCN[C@@H]3C[C@]34CCc3ccccc34)cc21 (relative stereo) [Compound I-81] ? 546

Value lookup for IC50; key = Nc1c(F)c(N[C@@H]2C[C@H]2c2ccccc2)c(F)c2c1c(=O)c(C(=O)O)cn2C1CC1 (relative stereo) [Compound I-32] 2100

# query: IC50 of entry CCn1cc(-c2nnn[nH]2)c(=O)c2c(N)c(F)c(NCCc3ccccc3)cc21 [Compound I-68] 711

May I ask what IC50 has been recorded for CC(C)n1cc(C(=O)O)c(=O)c2c(N)c(F)c(N[C@]3(C)C[C@@H](N[C@@H]4C[C@H]4c4ccccc4)C3)cc21 (relative stereo) [Compound I-93] ? 6540

Entry CCn1cc(C(=O)O)c(=O)c2c(N)c(F)c(NC3Cc4ccccc4C3)cc21 [Compound I-11] has what IC50? 990

Values compiled from patent US20230058189A1.
